TESTED SYSTEM: human adrenergic-α2C receptor (Homo sapiens, UniProt P18825)
Construct: expressed in transfected cells; membrane preparation
Sequence (P18825 whole entry): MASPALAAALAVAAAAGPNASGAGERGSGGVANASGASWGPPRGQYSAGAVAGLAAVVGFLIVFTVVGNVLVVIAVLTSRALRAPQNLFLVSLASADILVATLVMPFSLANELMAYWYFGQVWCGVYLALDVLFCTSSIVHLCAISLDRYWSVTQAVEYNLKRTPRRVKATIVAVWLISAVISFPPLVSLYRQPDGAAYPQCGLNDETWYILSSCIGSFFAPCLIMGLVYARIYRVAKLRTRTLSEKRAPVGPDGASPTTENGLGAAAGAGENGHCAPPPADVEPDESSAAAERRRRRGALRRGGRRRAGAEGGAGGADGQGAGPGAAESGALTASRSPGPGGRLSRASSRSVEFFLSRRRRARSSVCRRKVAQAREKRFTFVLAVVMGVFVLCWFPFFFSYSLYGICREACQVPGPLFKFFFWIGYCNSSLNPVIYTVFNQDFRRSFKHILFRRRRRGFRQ
EXPERIMENTAL PROTOCOL: Radioligand binding experiment for α2C-adrenoceptor ([3H]-raulwolscine competition, CHO cell membranes)
MEASUREMENT CONTEXT: [3H]raulwolscine 1 nM, membranes of CHO cells transfected with human α2C receptor; read-out: pIC50 α2C (converted)
The following ranges of IC50 define the classes used here: one (below 2 nM), two (2 nM to below 20 nM), three (20 nM or more)

> print(dat)
                                    compound                             tested.system  assigned.label
 1  O=c1n(CCNCCOc2ccccc2)nnn1-c1ccc(CN2CCOCC2)cc1  human adrenergic-α2C receptor (Homo sapiens, UniProt P18825)           three
 2  C/C(=C\c1ccccc1)CN1CCC(n2cnn(CCNCCOc3ccccc3)c2=O)CC1  human adrenergic-α2C receptor (Homo sapiens, UniProt P18825)             two
 3  CN(Cc1ccccc1)C(=O)Cn1cnn(CC2CCN(CCOc3ccccc3)CC2)c1=O  human adrenergic-α2C receptor (Homo sapiens, UniProt P18825)             two
 4  CN(C)CCNc1ccc(-n2cnn(CCC3CCN(CCOc4ccccc4)CC3)c2=O)cc1  human adrenergic-α2C receptor (Homo sapiens, UniProt P18825)             one
 5  NCc1ccc(Cn2cnn(C3CCN(CCOc4ccccc4)CC3)c2=O)cc1  human adrenergic-α2C receptor (Homo sapiens, UniProt P18825)             two
 6  CN1CCCN(Cc2ccc(-n3cnn(CC4CCN(CCOc5ccccc5)CC4)c3=O)cc2)CC1  human adrenergic-α2C receptor (Homo sapiens, UniProt P18825)             one
 7  O=c1n(-c2ccc(CNCc3ccccn3)cc2)cnn1CCNCCOc1ccccc1  human adrenergic-α2C receptor (Homo sapiens, UniProt P18825)             two
 8  O=c1n(-c2ccc(CN3CCC(N4CCCC4)CC3)cc2)cnn1CCNCCOc1ccccc1  human adrenergic-α2C receptor (Homo sapiens, UniProt P18825)             one
 9  CN(Cc1ccccc1)Cc1ccc(-n2cnn(CCNCCOc3ccccc3)c2=O)cc1  human adrenergic-α2C receptor (Homo sapiens, UniProt P18825)             two
10  O=c1n(-c2ccc(CN3CCOCC3)cc2)cnn1CC1CCN(Cc2cc3ccccc3o2)CC1  human adrenergic-α2C receptor (Homo sapiens, UniProt P18825)           three
11  O=c1n(-c2ccc(NCc3ccc(F)cc3)cc2)cnn1CC1CCN(CCOc2ccccc2)CC1  human adrenergic-α2C receptor (Homo sapiens, UniProt P18825)             two
12  CN1CCCN(c2ccc(-n3cnn(CCNCCOc4ccccc4)c3=O)cc2)CC1  human adrenergic-α2C receptor (Homo sapiens, UniProt P18825)             one
13  O=c1n(-c2ccc(CN3CCCC3)cc2)cnn1CC1CCN(CCOc2ccccc2)CC1  human adrenergic-α2C receptor (Homo sapiens, UniProt P18825)             one
14  O=c1n(-c2ccc(N3CCN(Cc4ccccc4)CC3)cc2)cnn1CCNCCOc1ccccc1  human adrenergic-α2C receptor (Homo sapiens, UniProt P18825)             two
15  C/C(=C\c1ccccc1)CN1CCC(Cn2ncn(-c3ccc(CN4CCOCC4)cc3)c2=O)CC1  human adrenergic-α2C receptor (Homo sapiens, UniProt P18825)           three
16  O=C(Cn1cnn(CC2CCN(CCOc3ccccc3)CC2)c1=O)Nc1ccc(F)cc1  human adrenergic-α2C receptor (Homo sapiens, UniProt P18825)             two
17  Cc1cc(CN2CCC(Cn3ncn(-c4ccc(CN5CCOCC5)cc4)c3=O)CC2)oc1C  human adrenergic-α2C receptor (Homo sapiens, UniProt P18825)           three
18  NCc1ccc(-n2cnn(C3CCN(CCOc4ccccc4)CC3)c2=O)cc1  human adrenergic-α2C receptor (Homo sapiens, UniProt P18825)             two
19  O=c1n(-c2ccc(NCCN3CCOCC3)cc2)cnn1CC1CCN(CCOc2ccccc2)CC1  human adrenergic-α2C receptor (Homo sapiens, UniProt P18825)             two
20  CC(NCCOc1ccccc1)C(C)n1ncn(-c2ccc(N3CCN(c4ccc(O)cc4)CC3)cc2)c1=O (single isomer, unassigned) [compound 6]  human adrenergic-α2C receptor (Homo sapiens, UniProt P18825)           three
21  C/C(=C\c1ccccc1)CN1CCC(n2cnn(-c3ccc(CN4CCOCC4)cc3)c2=O)CC1  human adrenergic-α2C receptor (Homo sapiens, UniProt P18825)           three
22  CC(C)(C)C(=O)Cn1cnn(CC2CCN(CCOc3ccccc3)CC2)c1=O  human adrenergic-α2C receptor (Homo sapiens, UniProt P18825)             two
23  C/C(=C\c1ccccc1)CN1CCC(n2cnn(CCN3CCCCC3)c2=O)CC1  human adrenergic-α2C receptor (Homo sapiens, UniProt P18825)           three
24  O=c1n(-c2ccc(CN3CCCCC3)cc2)cnn1CC1CCN(CCOc2ccccc2)CC1  human adrenergic-α2C receptor (Homo sapiens, UniProt P18825)             one
25  O=c1n(CC2CCN(CCOc3ccccc3)CC2)cnn1CCN1CCCCC1  human adrenergic-α2C receptor (Homo sapiens, UniProt P18825)             two
26  COc1ccccc1C1CCN(C(C)C(C)n2ncn(-c3ccc(N4CCN(c5ccc(O)cc5)CC4)cc3)c2=O)C1 (stereo not drawn)  human adrenergic-α2C receptor (Homo sapiens, UniProt P18825)             two
27  CN(C)CCNc1ccc(-n2cnn(CCNCCOc3ccccc3)c2=O)cc1 [compound 86]  human adrenergic-α2C receptor (Homo sapiens, UniProt P18825)             one
28  COc1ccc(N2CCN(c3ccc(-n4cnn(Cc5ccc(CN)cc5)c4=O)cc3)CC2)cc1  human adrenergic-α2C receptor (Homo sapiens, UniProt P18825)           three
29  C/C(=C\c1ccccc1)CN1CCC(CCn2ncn(-c3ccc(NCCN(C)C)cc3)c2=O)CC1  human adrenergic-α2C receptor (Homo sapiens, UniProt P18825)             one
30  N#Cc1cccc(NCCCN2CCN(CCn3ncn(CC4CCN(CCOc5ccccc5)CC4)c3=O)CC2)c1  human adrenergic-α2C receptor (Homo sapiens, UniProt P18825)             one

====

List of log10 IC50 values.
TESTED SYSTEM: human adrenergic-α2B receptor (Homo sapiens, UniProt P18089)
Construct: expressed in transfected cells; membrane preparation
Sequence (P18089 whole entry): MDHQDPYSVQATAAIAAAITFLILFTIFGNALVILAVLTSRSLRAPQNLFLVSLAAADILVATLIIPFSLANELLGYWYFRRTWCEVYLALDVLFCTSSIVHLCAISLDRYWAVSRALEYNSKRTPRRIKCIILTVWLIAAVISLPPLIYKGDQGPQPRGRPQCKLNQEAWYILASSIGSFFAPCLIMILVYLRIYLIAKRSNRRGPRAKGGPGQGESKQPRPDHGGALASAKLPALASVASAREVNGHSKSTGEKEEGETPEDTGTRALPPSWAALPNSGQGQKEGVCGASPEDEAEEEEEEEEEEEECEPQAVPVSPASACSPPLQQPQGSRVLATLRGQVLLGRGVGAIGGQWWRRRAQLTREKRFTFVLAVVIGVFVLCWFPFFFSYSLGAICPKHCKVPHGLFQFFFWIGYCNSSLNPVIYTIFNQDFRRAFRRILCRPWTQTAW
EXPERIMENTAL PROTOCOL: Radioligand binding experiment for α2B-adrenoceptor ([3H]-raulwolscine competition, CHO cell membranes)
MEASUREMENT CONTEXT: [3H]raulwolscine 1 nM, membranes of CHO cells transfected with human α2B receptor; read-out: pIC50 α2B (converted)
READOUT: log10 IC50 (log10 of the value in nM)

> print(dat)
                                   molecule  reported.value
1  O=c1n(-c2ccc(CN3CCCC3)cc2)cnn1CC1CCN(CCOc2ccccc2)CC1            1.00
2  O=c1n(-c2ccc(CNCC3CCCO3)cc2)cnn1CCNCCOc1ccccc1 (centres unmarked)            2.10
3  O=c1n(-c2ccc(CN3CCc4ccccc4C3)cc2)cnn1CCNCCOc1ccccc1            1.90
4  O=c1n(-c2ccc(CN3CCOCC3)cc2)cnn1CC1CCN(CCOc2ccccc2)CC1            1.60
5  O=c1n(CC2CCN(CCOc3ccccc3)CC2)cnn1CCN1CCCCC1            1.70
6  O=c1n(-c2ccc(NCc3ccc(F)cc3)cc2)cnn1CC1CCN(CCOc2ccccc2)CC1            1.40
7  O=c1n(-c2ccc(CN3CCCCC3)cc2)cnn1CC1CCN(CCOc2ccccc2)CC1            1.10
8  CCOC(=O)C1CCN(Cc2ccc(-n3cnn(CCNCCOc4ccccc4)c3=O)cc2)CC1            2.40

====

TESTED SYSTEM: human adrenergic-α2C receptor (Homo sapiens, UniProt P18825)
Construct: expressed in transfected cells; membrane preparation
EXPERIMENTAL PROTOCOL: Radioligand binding experiment for α2C-adrenoceptor ([3H]-raulwolscine competition, CHO cell membranes)
MEASUREMENT CONTEXT: [3H]raulwolscine 1 nM, membranes of CHO cells transfected with human α2C receptor; read-out: pIC50 α2C (converted)
The following ranges of IC50 define the classes used here: bin A (below 2 nM), bin B (2 nM to below 10 nM), bin C (10 nM or more)

> print(dat)
                                    molecule  assigned.label
 1  O=c1n(-c2ccc(CN3CCOCC3)cc2)cnn1CC1CCN(CCOc2ccccc2)CC1           bin A
 2  CC(C)N1CCc2cc(-n3cnn(CCNCCOc4ccccc4)c3=O)ccc2C1           bin C
 3  COc1ccc(N2CCN(c3ccc(-n4cnn(C5CCN(C/C(C)=C/c6ccccc6)CC5)c4=O)cc3)CC2)cc1           bin C
 4  O=c1n(-c2ccc(CNCCc3ccccc3)cc2)cnn1CCNCCOc1ccccc1           bin A
 5  O=C1c2ccccc2C(=O)N1CCCn1ncn(CC2CCN(CCOc3ccccc3)CC2)c1=O           bin A
 6  O=c1n(CC2CCN(CCOc3ccccc3)CC2)cnn1CCN1CC2CC=CCC1CN2c1ccc2ccccc2c1 (centres unmarked)           bin B
 7  O=c1n(CCNCCOc2ccccc2)cnn1-c1ccc(CN2CCOCC2)cc1           bin C
 8  O=c1n(CC2CCN(CCOc3ccccc3)CC2)nnn1-c1ccc(CN2CCOCC2)cc1           bin B
 9  CCOC(=O)C1CCN(Cc2ccc(-n3cnn(CCNCCOc4ccccc4)c3=O)cc2)CC1           bin B
10  C/C(=C\c1ccccc1)CN1CCC(n2cnn(-c3ccc(NCCN(C)C)cc3)c2=O)CC1           bin C
11  CN(C)CCNc1ccc(-n2cnn(CCNCCOc3ccccc3)c2=O)cc1 [compound 87]           bin A
12  O=c1n(-c2ccc3c(c2)CCN(CC2CCCCC2)C3)cnn1CCNCCOc1ccccc1           bin C
13  O=c1n(-c2ccc(CN3CCOCC3)cc2)cnn1CC1CCN(Cc2ccc3ccccc3c2)CC1           bin C
14  O=c1n(-c2ccc3c(c2)CCN(CCN2CCCC2)C3)cnn1CCNCCOc1ccccc1           bin B
15  O=c1n(-c2ccc(CNCCN3CCCCC3)cc2)cnn1CCNCCOc1ccccc1           bin A
